# TEST NAME: Cmax in Sprague-Dawley rat at 2 mg/kg, po measured up to 8 hrs by LC-MS/MS analysis
# Format: ADME, organism-based
# MEASUREMENT CONDITIONS: in vivo
OBSERVABLE: Cmax (nM)
Please state the figure in nM; there is no need to write the unit.

Ask | What value of Cmax has been recorded for this entry: "CCOc1cc(N2CCC(O)CC2)ccc1Nc1ncc2c(n1)N(C)c1ccccc1C(=O)N2C"
Reply | 522

----------
# TARGET OF ASSAY: Serine/threonine-protein kinase Nek9 (Homo sapiens)
# Sequence (Q8TD19 whole entry): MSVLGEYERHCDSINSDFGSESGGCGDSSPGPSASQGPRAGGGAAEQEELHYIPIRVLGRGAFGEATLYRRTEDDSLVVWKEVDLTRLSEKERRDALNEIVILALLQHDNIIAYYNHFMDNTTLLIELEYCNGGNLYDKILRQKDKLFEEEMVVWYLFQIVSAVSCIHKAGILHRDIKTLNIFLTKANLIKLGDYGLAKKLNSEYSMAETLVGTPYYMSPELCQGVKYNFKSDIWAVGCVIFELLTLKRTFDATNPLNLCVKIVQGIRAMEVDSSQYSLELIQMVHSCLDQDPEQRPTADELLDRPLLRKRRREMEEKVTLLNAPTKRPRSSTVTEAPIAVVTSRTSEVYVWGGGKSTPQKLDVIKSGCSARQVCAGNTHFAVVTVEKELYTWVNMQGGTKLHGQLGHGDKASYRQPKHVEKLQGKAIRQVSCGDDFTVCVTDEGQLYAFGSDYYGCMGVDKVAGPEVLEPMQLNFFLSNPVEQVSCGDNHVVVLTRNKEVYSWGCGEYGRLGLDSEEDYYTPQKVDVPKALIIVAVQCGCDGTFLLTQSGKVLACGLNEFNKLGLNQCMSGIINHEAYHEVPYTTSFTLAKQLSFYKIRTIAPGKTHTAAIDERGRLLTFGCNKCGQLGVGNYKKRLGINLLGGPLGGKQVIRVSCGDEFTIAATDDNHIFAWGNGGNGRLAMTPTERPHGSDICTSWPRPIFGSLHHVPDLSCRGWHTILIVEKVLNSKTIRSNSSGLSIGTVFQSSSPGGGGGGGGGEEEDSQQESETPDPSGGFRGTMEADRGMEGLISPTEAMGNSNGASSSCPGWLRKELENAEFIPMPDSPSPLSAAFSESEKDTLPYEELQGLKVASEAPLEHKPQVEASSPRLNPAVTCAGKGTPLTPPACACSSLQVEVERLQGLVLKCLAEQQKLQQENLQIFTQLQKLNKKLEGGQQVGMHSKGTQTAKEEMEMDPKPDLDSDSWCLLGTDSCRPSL
# TEST NAME: Inhibition of NEK9 in human HeLa cells lysate pre incubated for 15 mins followed by ADP acyl phosphate probe addition and measured after 10 mins by LC-MS/MS analysis
# Format: subcellular
pIC50: −log10 of the molar value.
OBSERVABLE: pIC50

Ask | What value of pIC50 has been recorded for this entry: "CCOc1cc(N2CCC(O)CC2)ccc1Nc1ncc2c(n1)N(C)c1ccccc1C(=O)N2C"
Reply | < 4.30
